- Test system: Acinetobacter baumannii ABA19-1
- Assay type: cell-based
- EXPERIMENTAL PARAMETERS: Acinetobacter baumannii ABA19-1
Bridge positions count the residues as written; N and C are the ends. Square brackets hold non-standard residues; d marks the D form. Peptide text beside a SMILES is read from it. * marks the point of attachment. Octanoyl = CCCCCCCC(=O)*; dDap = NC[C@@H](N)C(=O)O; Dab = NCC[C@H](N)C(=O)O
MEASUREMENT KIND: MIC (µg/mL)
Respond numerically; units are µg/mL and should not be typed.

Please report the recorded MIC for CCCCCCCC(=O)N[C@@H](CCN)C(=O)N[C@H](C(=O)N[C@H](CN)C(=O)N[C@H]1CCNC(=O)[C@H]([C@@H](C)O)NC(=O)[C@H](CCN)NC(=O)[C@H](CCN)NC(=O)[C@H](CC(C)C)NC(=O)[C@@H](Cc2ccccc2)NC(=O)[C@H](CCN)NC1=O)[C@@H](C)O [Compound 33] (Octanoyl-[Dab]T[dDap][Dab][Dab][dF]L[Dab][Dab]T; lactam 4-C) .
0.03

---

I'd be grateful if you could share measured MIC for these entries.
- System: Pseudomonas aeruginosa ATCC 27853
- Format: cell-based
- EXPERIMENTAL PARAMETERS: ATCC 27853
Bridge positions count the residues as written; N and C are the ends. Square brackets hold non-standard residues; d marks the D form. Peptide text beside a SMILES is read from it. * marks the point of attachment. Heptanoyl(6-Me) = CC(C)CCCCC(=O)*; Sulfomethyl = O=S(=O)(O)C*; Nonanoyl = CCCCCCCCC(=O)*; Orn = NCCC[C@H](N)C(=O)O; Dab = NCC[C@H](N)C(=O)O

Need MIC, item CCCCCCCCC(=O)N[C@@H](CCN)C(=O)N[C@H](C(=O)N[C@H](CO)C(=O)N[C@H]1CCNC(=O)[C@H]([C@@H](C)O)NC(=O)[C@H](CCN)NC(=O)[C@H](CCN)NC(=O)[C@H]([C@@H](C)O)NC(=O)[C@@H](Cc2ccccc2)NC(=O)[C@H](CCCN)NC1=O)[C@@H](C)O [Compound 70] (Nonanoyl-[Dab]T[dS][Dab][Orn][dF]T[Dab][Dab]T; lactam 4-C)
64 µg/mL

Ok, now CC(C)CCCCC(=O)N[C@@H](CCN)C(=O)N[C@H](C(=O)N[C@H](CO)C(=O)N[C@H]1CCNC(=O)[C@H]([C@@H](C)O)NC(=O)[C@H](CCN)NC(=O)[C@H](CCN)NC(=O)[C@H]([C@@H](C)O)NC(=O)[C@@H](Cc2ccccc2)NC(=O)[C@H](CCN)NC1=O)[C@@H](C)OCS(=O)(=O)O [Compound 104] ({Heptanoyl(6-Me)}-[Dab]T(Sulfomethyl)[dS][Dab][Dab][dF]T[Dab][Dab]T; lactam 4-C)
0.25 µg/mL

---

Consider the following molecules; for each one, report its MIC.
- Test system: Escherichia coli ATCC BAA-2523
- Type: cell-based
- EXPERIMENTAL PARAMETERS: ATCC BAA-2523
Bridge positions count the residues as written; N and C are the ends. Square brackets hold non-standard residues; d marks the D form. Peptide text beside a SMILES is read from it. * marks the point of attachment. Heptanoyl(6-Me) = CC(C)CCCCC(=O)*; Sulfomethyl = O=S(=O)(O)C*; dOrn = NCCC[C@@H](N)C(=O)O; Nonanoyl = CCCCCCCCC(=O)*; X1 = CC[C@H](C)CCCCC(=O)*; Heptanoyl = CCCCCCC(=O)*; Octanoyl = CCCCCCCC(=O)*; Orn = NCCC[C@H](N)C(=O)O; Dab = NCC[C@H](N)C(=O)O; Dap = NC[C@H](N)C(=O)O

If you can, please state the reported MIC value of CC[C@H](C)CCCCC(=O)N[C@@H](CCN)C(=O)N[C@H](C(=O)N[C@H](CCCN)C(=O)N[C@H]1CCNC(=O)[C@H]([C@@H](C)O)NC(=O)[C@H](CCN)NC(=O)[C@H](CCN)NC(=O)[C@H]([C@@H](C)O)NC(=O)[C@@H](Cc2ccccc2)NC(=O)[C@H](CCN)NC1=O)[C@@H](C)O [Compound 21] (X1-[Dab]T[dOrn][Dab][Dab][dF]T[Dab][Dab]T; lactam 4-C) .
≤0.03 µg/mL

Item: CC(C)CCCCC(=O)N[C@@H](CCN)C(=O)N[C@H](C(=O)N[C@@H](CN)C(=O)N[C@H]1CCNC(=O)[C@H]([C@@H](C)O)NC(=O)[C@H](CCN)NC(=O)[C@H](CCN)NC(=O)[C@H]([C@@H](C)O)NC(=O)[C@@H](Cc2ccccc2)NC(=O)[C@H](CCN)NC1=O)[C@@H](C)OCS(=O)(=O)O [Compound 113] ({Heptanoyl(6-Me)}-[Dab]T(Sulfomethyl)[Dap][Dab][Dab][dF]T[Dab][Dab]T; lactam 4-C)
0.03 µg/mL

// query: CC(C)CCCCC(=O)N[C@@H](CCN)C(=O)N[C@H](C(=O)N[C@H](CO)C(=O)N[C@H]1CCNC(=O)[C@H]([C@@H](C)O)NC(=O)[C@H](CCN)NC(=O)[C@H](CCCN)NC(=O)[C@H]([C@@H](C)O)NC(=O)[C@@H](Cc2ccccc2)NC(=O)[C@H](CCN)NC1=O)[C@@H](C)O [Compound 77] ({Heptanoyl(6-Me)}-[Dab]T[dS][Dab][Dab][dF]T[Orn][Dab]T; lactam 4-C)
≤0.03 µg/mL

And the next one, CC(C)CCCCC(=O)N[C@@H](CCN)C(=O)N[C@H](C(=O)N[C@@H](CCN)C(=O)N[C@H]1CCNC(=O)[C@H]([C@@H](C)O)NC(=O)[C@H](CCN)NC(=O)[C@H](CCN)NC(=O)[C@H]([C@@H](C)O)NC(=O)[C@@H](Cc2ccccc2)NC(=O)[C@H](CCN)NC1=O)[C@@H](C)O [Compound 17] ({Heptanoyl(6-Me)}-[Dab]T[Dab][Dab][Dab][dF]T[Dab][Dab]T; lactam 4-C) ?
0.06 µg/mL

Another molecule: CC(C)CCCCC(=O)N[C@@H](CCN)C(=O)N[C@H](C(=O)N[C@H](CO)C(=O)N[C@H]1CCNC(=O)[C@H]([C@@H](C)O)NC(=O)[C@H](CN)NC(=O)[C@H](CCN)NC(=O)[C@H]([C@@H](C)O)NC(=O)[C@@H](Cc2ccccc2)NC(=O)[C@H](CCN)NC1=O)[C@@H](C)O [Compound 82] ({Heptanoyl(6-Me)}-[Dab]T[dS][Dab][Dab][dF]T[Dab][Dap]T; lactam 4-C)
0.03 µg/mL

Similarly, CCCCCCC(=O)N[C@@H](CCN)C(=O)N[C@H](C(=O)N[C@@H](CCCN)C(=O)N[C@H]1CCNC(=O)[C@H]([C@@H](C)O)NC(=O)[C@H](CCN)NC(=O)[C@H](CCN)NC(=O)[C@H]([C@@H](C)O)NC(=O)[C@@H](Cc2ccccc2)NC(=O)[C@H](CCN)NC1=O)[C@@H](C)O [Compound 29] (Heptanoyl-[Dab]T[Orn][Dab][Dab][dF]T[Dab][Dab]T; lactam 4-C) ?
0.03 µg/mL

Param item: CCCCCCC(=O)N[C@@H](CCN)C(=O)N[C@H](C(=O)N[C@H](CCCN)C(=O)N[C@H]1CCNC(=O)[C@H]([C@@H](C)O)NC(=O)[C@H](CCN)NC(=O)[C@H](CCN)NC(=O)[C@H](CC(C)C)NC(=O)[C@@H](Cc2ccccc2)NC(=O)[C@H](CCN)NC1=O)[C@@H](C)O [Compound 44] (Heptanoyl-[Dab]T[dOrn][Dab][Dab][dF]L[Dab][Dab]T; lactam 4-C)
0.06 µg/mL

Further, for CCCCCCCC(=O)N[C@@H](CCN)C(=O)N[C@H](C(=O)N[C@H](CO)C(=O)N[C@H]1CCNC(=O)[C@H]([C@@H](C)O)NC(=O)[C@H](CCN)NC(=O)[C@H](CCN)NC(=O)[C@H]([C@@H](C)O)NC(=O)[C@@H](Cc2ccccc2)NC(=O)[C@H](CCCN)NC1=O)[C@@H](C)O [Compound 68] (Octanoyl-[Dab]T[dS][Dab][Orn][dF]T[Dab][Dab]T; lactam 4-C) ?
0.25 µg/mL

Continue with CCCCCCCCC(=O)N[C@@H](CCN)C(=O)N[C@H](C(=O)N[C@H](CO)C(=O)N[C@H]1CCNC(=O)[C@H]([C@@H](C)O)NC(=O)[C@H](CCN)NC(=O)[C@H](CCN)NC(=O)[C@H]([C@@H](C)O)NC(=O)[C@@H](Cc2ccccc2)NC(=O)[C@H](CCCN)NC1=O)[C@@H](C)O [Compound 70] (Nonanoyl-[Dab]T[dS][Dab][Orn][dF]T[Dab][Dab]T; lactam 4-C)
0.5 µg/mL

Ok, now CCCCCCCCC(=O)N[C@@H](CCN)C(=O)N[C@H](C(=O)N[C@@H](CN)C(=O)N[C@H]1CCNC(=O)[C@H]([C@@H](C)O)NC(=O)[C@H](CCN)NC(=O)[C@H](CCN)NC(=O)[C@H](CC(C)C)NC(=O)[C@@H](Cc2ccccc2)NC(=O)[C@H](CCN)NC1=O)[C@@H](C)O [Compound 40] (Nonanoyl-[Dab]T[Dap][Dab][Dab][dF]L[Dab][Dab]T; lactam 4-C)
0.06 µg/mL
